# assay_comment: Microsomal stability (rat microsomes)
# Format: in vitro ADME
# test_conditions: pH 7.4, 1 μM test compound, 0.5 mg/mL protein, 1 mM NADPH, 37° C., read-out: Averages. Mic Half Life Rat
measured_attribute: log10(half-life at 1 μM) (log10 of the value in min)
Answers are given as log10 of half-life at 1 μM in min.

Please review the following examples before continuing.
1) CCn1c(CNC(=O)c2nc(Br)cnc2N)[n+](C)c2ccc(C(F)(F)F)cc21.[I-] = 0.70
2) CCn1c(CNC(=O)c2nc(Br)cnc2N)[n+](C)c2ccc(Cl)cc21.O=CO.O=C[O-] = 0.60
3) CCn1c(CNC(=O)c2nc(Br)cnc2N)[n+](CC)c2ccc(-c3cnn(C4CCNCC4)c3)cc21.Cl.[I-] = 1.89

Query: Which log10(half-life at 1 μM) is listed for CCn1c(CNC(=O)c2nc(SC)cnc2N)[n+](C)c2ccc(OC)cc21.[I-] ?
Response: 0.48

Query: Again, but for CCn1c(CNC(=O)c2nc(Br)cnc2N)[n+](CC)c2ccc(-c3cnn(C4CCN(C(=O)OC(C)(C)C)CC4)c3)cc21.[I-]
Response: 1.79

Query: Again, but for CCn1c(CNC(=O)c2nc(Br)cnc2N)[n+](CC)c2ccc(OC)cc21.O=C[O-]
Response: 0.48

----------
# assay_comment: Microsomal stability (human microsomes)
# Type: in vitro ADME
# test_conditions: pH 7.4, 1 μM test compound, 0.5 mg/mL protein, 1 mM NADPH, 37° C., read-out: Averages. Mic Half Life Human
measured_attribute: half-life at 1 μM (min)
Give the quantity in min, number only.

1) CCn1c(CNC(=O)c2nc(Br)cnc2N)[n+](CC)c2ccc(-c3cnn(C4CCNCC4)c3)cc21.Cl.[I-] [Example 21] = 92
2) CCn1c(CNC(=O)c2nc(Br)cnc2N)[n+](CC)c2ccc(OC)cc21.O=C[O-] [Example 2] = 58

Next, consider the following molecule.
Query: Which half-life at 1 μM is listed for CCn1c(CNC(=O)c2nc(Br)cnc2N)[n+](CC)c2ccc(OCCNC(=O)OC(C)(C)C)cc21.O=C[O-] [Example 24] ?
Response: 59

----------
# target_of_assay: ENaC (Homo sapiens, UniProt P37088+P51168+P51170)
# Sequence (P37088 whole entry): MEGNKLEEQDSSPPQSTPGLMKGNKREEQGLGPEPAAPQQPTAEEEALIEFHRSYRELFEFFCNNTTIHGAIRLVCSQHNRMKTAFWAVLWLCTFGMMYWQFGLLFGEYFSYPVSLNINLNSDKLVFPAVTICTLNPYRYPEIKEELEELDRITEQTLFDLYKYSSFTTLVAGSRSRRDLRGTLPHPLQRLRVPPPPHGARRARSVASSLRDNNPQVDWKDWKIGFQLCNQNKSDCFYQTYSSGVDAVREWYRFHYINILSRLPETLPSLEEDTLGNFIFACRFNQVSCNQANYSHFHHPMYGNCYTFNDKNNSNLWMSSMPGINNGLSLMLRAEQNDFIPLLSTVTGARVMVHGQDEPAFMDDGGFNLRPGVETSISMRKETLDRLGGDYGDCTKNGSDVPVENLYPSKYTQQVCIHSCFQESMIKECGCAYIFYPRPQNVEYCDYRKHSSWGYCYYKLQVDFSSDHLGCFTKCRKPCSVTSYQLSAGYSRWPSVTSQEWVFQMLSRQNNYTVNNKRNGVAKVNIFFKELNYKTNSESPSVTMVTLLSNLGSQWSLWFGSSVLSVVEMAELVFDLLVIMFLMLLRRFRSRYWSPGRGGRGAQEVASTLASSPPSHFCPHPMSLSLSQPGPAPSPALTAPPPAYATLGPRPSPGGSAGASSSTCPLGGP
# Sequence (P51168 whole entry): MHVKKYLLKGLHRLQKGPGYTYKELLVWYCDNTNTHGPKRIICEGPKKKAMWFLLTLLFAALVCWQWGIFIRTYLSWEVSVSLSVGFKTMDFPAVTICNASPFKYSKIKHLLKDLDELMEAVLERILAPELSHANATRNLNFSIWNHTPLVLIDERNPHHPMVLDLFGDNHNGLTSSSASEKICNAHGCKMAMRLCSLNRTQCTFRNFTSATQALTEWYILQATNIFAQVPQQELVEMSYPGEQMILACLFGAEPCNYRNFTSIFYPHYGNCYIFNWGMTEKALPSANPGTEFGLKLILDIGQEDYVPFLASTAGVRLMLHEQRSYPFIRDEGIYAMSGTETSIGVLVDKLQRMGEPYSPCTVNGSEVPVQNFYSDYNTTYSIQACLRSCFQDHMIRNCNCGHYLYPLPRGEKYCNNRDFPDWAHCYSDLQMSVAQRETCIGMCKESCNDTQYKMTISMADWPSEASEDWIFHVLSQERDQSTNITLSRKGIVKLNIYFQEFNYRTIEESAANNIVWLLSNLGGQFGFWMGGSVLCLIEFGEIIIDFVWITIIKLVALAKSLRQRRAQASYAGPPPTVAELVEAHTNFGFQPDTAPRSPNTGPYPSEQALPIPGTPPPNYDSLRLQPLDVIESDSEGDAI
# Sequence (P51170 whole entry): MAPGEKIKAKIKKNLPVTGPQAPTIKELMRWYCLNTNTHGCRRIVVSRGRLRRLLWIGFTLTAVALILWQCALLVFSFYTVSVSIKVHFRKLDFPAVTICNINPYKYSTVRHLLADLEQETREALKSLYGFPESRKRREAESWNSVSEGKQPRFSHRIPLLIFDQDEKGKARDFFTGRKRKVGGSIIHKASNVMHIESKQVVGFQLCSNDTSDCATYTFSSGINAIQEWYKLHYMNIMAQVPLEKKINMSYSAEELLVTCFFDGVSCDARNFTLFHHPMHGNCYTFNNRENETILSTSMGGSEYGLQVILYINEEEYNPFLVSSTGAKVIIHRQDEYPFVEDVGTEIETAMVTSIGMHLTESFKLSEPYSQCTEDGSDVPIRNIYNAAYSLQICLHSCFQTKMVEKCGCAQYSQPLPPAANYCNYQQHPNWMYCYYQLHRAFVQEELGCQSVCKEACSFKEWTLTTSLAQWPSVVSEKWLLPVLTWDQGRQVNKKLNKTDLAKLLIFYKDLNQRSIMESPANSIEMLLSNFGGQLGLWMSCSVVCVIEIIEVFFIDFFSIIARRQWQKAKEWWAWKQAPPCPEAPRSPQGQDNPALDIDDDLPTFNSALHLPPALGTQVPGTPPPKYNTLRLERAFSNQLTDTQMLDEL
# assay_comment: Short circuit current assay to determine ENaC blocker potency in human bronchial epithelial cells
# test_conditions: 50% inhibition of total amiloride-sensitive ISC, HBECs, apical addition; read-out: Averages. ENaC Ic50 μm Avg
Structures can show the parent of a compound that is named as a salt.
log10(IC50) overview
Answers are given as log10 of IC50 in nM.

Query: Notebook: pull reported log10(IC50) for ENaC (Homo sapiens, UniProt P37088+P51168+P51170), entry CCn1c(CNC(=O)c2nc(Br)cnc2N)[n+](CC)c2ccc(C(=O)O)cc21 [Example 16]
Response: 1.15

Query: Again, but for CCn1c(CNC(=O)c2nc(Br)cnc2N)[n+](CC)c2ccc(OCCN)cc21.Cl.[Cl-] [Example 25]
Response: 0.30

Query: Again, but for CCn1c(CNC(=O)c2nc(C)cnc2N)[n+](C)c2ccc(OC)cc21.[I-] [Example 7]
Response: 0.60

Query: Again, but for CCn1c(CNC(=O)c2nc(Br)cnc2N)[n+](CC)c2ccc(C(=O)N[C@@H]3CCOC3=O)cc21 [Example 17, formate]
Response: 0.48

Query: Again, but for CCn1c(CNC(=O)c2nc(Br)cnc2N)[n+](CC)c2ccc(-c3cnn(C4CCN(C(=O)OC(C)(C)C)CC4)c3)cc21.[I-] [Example 20]
Response: 0.00

Query: Again, but for CCn1c(CNC(=O)c2nc(Br)cnc2N)[n+](CC)c2ccc(-c3cnn(C4CCN(C[C@H](O)[C@@H](O)[C@H](O)[C@H](O)CO)CC4)c3)cc21.O=CO.[Cl-] [Example 23]
Response: 0.30

Query: Again, but for CCn1c(CNC(=O)c2nc(C#N)cnc2N)[n+](CC)c2ccc(OC)cc21 [Example 26, formate]
Response: 0.90
